# Measurement notes: Dog pharmacokinetic study, single oral HM04 fumarate salt 3, 10, 30 mg/kg (Example 10)
# Assay type: in vivo, male Beagle dogs
# Test settings: male, Beagle, plasma, 3 mg/kg oral, n=4
Measure name: AUC(0-t) (ng·h/mL)
Record the value in ng·h/mL, omitting the unit from your answer.

CN1CCC(N(C)C(=O)N[C@H](c2ccc(-c3cnccn3)c(Cl)c2Cl)C(F)(F)F)CC1.O=C(O)/C=C/C(=O)O [HM04 fumarate salt] yielded AUC(0-t) of 2160

* * *

# Measurement notes: Rat pharmacokinetic study, HM04 free base vs HM04 fumarate salt (Example 9)
# Type: in vivo, male Sprague Dawley rats
# Test settings: male, Sprague Dawley, plasma, 3 mg/kg intravenous, three rats, read-out: mean AUC following intravenous administration
Measure name: AUC
Hi, when you answer, please include the unit after the number. Thanks!

Molecule | AUC
CN1CCC(N(C)C(=O)N[C@H](c2ccc(-c3cnccn3)c(Cl)c2Cl)C(F)(F)F)CC1 [HM04 free base] | 990 ng·h/mL

# context switch: different molecule, same AUC
Entry under test: CN1CCC(N(C)C(=O)N[C@H](c2ccc(-c3cnccn3)c(Cl)c2Cl)C(F)(F)F)CC1.O=C(O)/C=C/C(=O)O [HM04 fumarate salt] . Its AUC was 2100 ng·h/mL

* * *

# Measurement notes: Dog pharmacokinetic study, single oral HM04 fumarate salt 3, 10, 30 mg/kg (Example 10)
# Type: in vivo, male Beagle dogs
# Test settings: male, Beagle, plasma, oral 3 to 30 mg/kg, range, read-out: apparent terminal half-life
Measure name: half-life

In plain terms, CN1CCC(N(C)C(=O)N[C@H](c2ccc(-c3cnccn3)c(Cl)c2Cl)C(F)(F)F)CC1.O=C(O)/C=C/C(=O)O [HM04 fumarate salt] has a documented half-life of 4 to 7 h

* * *

# Measurement notes: Dog pharmacokinetic study, single oral HM04 fumarate salt 3, 10, 30 mg/kg (Example 10)
# Format: in vivo, male Beagle dogs
# Test settings: male, Beagle, plasma, 30 mg/kg oral, n=4
Measure name: AUC(0-t) (µg·h/mL)
Supply the numeric figure in µg·h/mL, leaving out any unit text.

Query CN1CCC(N(C)C(=O)N[C@H](c2ccc(-c3cnccn3)c(Cl)c2Cl)C(F)(F)F)CC1.O=C(O)/C=C/C(=O)O [HM04 fumarate salt] yields AUC(0-t) of 54

* * *

# Measurement notes: Rat pharmacokinetic study, single oral HM04 fumarate salt 3, 10, 30 mg/kg (Example 10)
# Format: in vivo, male Sprague Dawley rats
# Test settings: male, Sprague Dawley, plasma, 3 mg/kg oral, 8 hours, n=4
Measure name: concentration at 8 h (ng/mL)
Entry rule: numbers only, all in ng/mL.

The compound CN1CCC(N(C)C(=O)N[C@H](c2ccc(-c3cnccn3)c(Cl)c2Cl)C(F)(F)F)CC1.O=C(O)/C=C/C(=O)O [HM04 fumarate salt] showed concentration at 8 h equal to 47

* * *

# Measurement notes: Dog pharmacokinetic study, single oral HM04 fumarate salt 3, 10, 30 mg/kg (Example 10)
# Assay type: in vivo, male Beagle dogs
# Test settings: male, Beagle, plasma, 3 mg/kg oral, 4 hours, n=4
Measure name: concentration at 4 h (ng/mL)
Provide only the numeric value, understood in ng/mL.

concentration at 4 h reading for CN1CCC(N(C)C(=O)N[C@H](c2ccc(-c3cnccn3)c(Cl)c2Cl)C(F)(F)F)CC1.O=C(O)/C=C/C(=O)O [HM04 fumarate salt] : 185
